System: PC-3 cells
Assay: Sulforhodamine B (SRB) assay, PC-3
Type: cell-based
Settings: Homo sapiens; PC-3 cells, SRB, 48 h; read-out: GI50 con. ± SEM PC-3
Property: GI50; scope: individual compounds

COMPOUND	RESULT QUALIFIER	GI50, µM
O=C(NO)c1ccc(Cn2c(=O)n(CCc3ccccc3)c(=O)c3cc(NCCOCCOCCOCCNc4ccc5c(c4)c(=O)n(CCc4ccccc4)c(=O)n5Cc4ccc(C(=O)NO)cc4)ccc32)cc1 [Compound 4a]	>	30
O=C(NO)c1ccc(Cn2c(=O)n(CCOCCOCCn3c(=O)c4ccccc4n(Cc4ccc(C(=O)NO)cc4)c3=O)c(=O)c3ccccc32)cc1 [Compound 8b]	>	30
O=C(NO)c1ccc(CNc2ccccc2C(=O)NCCCCCNC(=O)c2ccccc2NCc2ccc(C(=O)NO)cc2)cc1 [Compound 11c]	=	8.2
O=C(NO)c1ccc(Cn2c(=O)n(CCCCCn3c(=O)c4ccccc4n(Cc4ccc(C(=O)NO)cc4)c3=O)c(=O)c3ccccc32)cc1 [Compound 8c]	>	30
O=C(NO)c1ccc(CNc2ccccc2C(=O)NCCOCCOCCNC(=O)c2ccccc2NCc2ccc(C(=O)NO)cc2)cc1 [Compound 11b]	=	11.3
O=C(NO)c1ccc(CNc2ccccc2C(=O)NCCOCCOCCOCCNC(=O)c2ccccc2NCc2ccc(C(=O)NO)cc2)cc1 [Compound 11a]	=	5.9
O=C(NO)c1ccc(Cn2c(=O)n(CCc3ccccc3)c(=O)c3cc(NCCCCCNc4ccc5c(c4)c(=O)n(CCc4ccccc4)c(=O)n5Cc4ccc(C(=O)NO)cc4)ccc32)cc1 [Compound 4c]	=	21.4
O=C(NO)c1ccc(Cn2c(=O)n(CCc3ccc(NCCOCCOCCOCCNc4ccc(CCn5c(=O)c6ccccc6n(Cc6ccc(C(=O)NO)cc6)c5=O)cc4)cc3)c(=O)c3ccccc32)cc1 [Compound 6a]	>	30
